System: streptokinase (SK)
Condition details: compound conc. 10 μg/ml
Observed property: SK Expression (% control)
Form entry: value (% control) — number only.

Below are worked cases with known answers.
Look up SK Expression (% control): C=CCn1c(SC)nc2c(c1=O)C1(CCCCC1)Cc1ccccc1-2 [CCG-102620]
50

Any idea what its SK Expression (% control) is? The compound is C=CCn1c(NCC)nc2c(c1=O)C1(CCCCC1)Cc1ccccc1-2 [CCG-203043]
41

Reported SK Expression (% control), compound CCn1c(SCc2ccccc2)nc2c(c1=O)C1(CCCC1)Cc1ccccc1-2 [AK968] : ____
83

Find the recorded SK Expression (% control) belonging to C=CCn1c(SCCOC)nc2c(c1=O)CC(C)c1ccccc1-2 (centres unmarked) [CCG-203574] and report it.
10

Others:
What value of SK Expression (% control) has been recorded for this entry: C=CCn1c(OCC)nc2c(c1=O)C1(CCCCC1)Cc1ccccc1-2 [CCG-102622]
41

Any idea what its SK Expression (% control) is? The compound is C=CCn1c(SCCO)nc2c(c1=O)C(C)(C)Cc1ccccc1-2 [CCG-203041]
57

Query (compound): C=CCn1c(SCC)nc2c(c1=O)C(C)(C)Cc1ccccc1-2 [1S-26137] ; field requested: SK Expression (% control)
20

Please report the recorded SK Expression (% control) for C=CCn1c(SCc2ccccn2)nc2c(c1=O)C(C)(C)Cc1ccccc1-2 [CCG-203039] .
49

Can you share its SK Expression (% control)? I mean this compound: C=CCn1c(SCC(N)=O)nc2c(c1=O)C(C)(C)Cc1ccccc1-2 [CCG-203037]
92

Requested read-out: SK Expression (% control). Entry: C=CCn1c(SCc2ccccc2)nc2c(c1=O)C(C)(C)Cc1ccccc1-2 [compound 25203]
96

Recorded SK Expression (% control) for C=CCn1c(SCC(=O)OCC)nc2c(c1=O)C(C)(C)Cc1ccccc1-2 [1S-30398] , please?
36

The origin of these recorded values is patent US8501722B2.
